Entries annotated with measured Population Membrane Permeable-Phenotype (%)
Test system: U2OS
METHOD_SUMMARY: Multiplex assay against U2OS
Assay type: toxicity, cell-based
PROTOCOL_CONDITIONS: human, 48 h, 10 µM, compound concentration 10 uM, replicate 2
Lab book: enter the figure in %, no units written.

Would you please look over these solved cases?
O=C(NCCO)c1cccc(-c2cc(Nc3ccc(OC(F)(F)F)cc3)ncn2)c1 | 5
CC(=O)NCCc1c(Cc2ccccc2)[nH]c2ccccc12 | 5
C[C@@H]1C[C@H]2[C@@H]3CCC4=CC(=O)C=C[C@]4(C)[C@@]3(F)[C@@H](O)C[C@]2(C)[C@@]1(O)C(=O)CO | 5
O=C(NCC(=O)N1CC[C@H](N[C@H]2CC[C@@](O)(c3ccc(-c4ncccn4)cn3)CC2)C1)c1cccc(C(F)(F)F)c1 | 15
CCCn1c(=O)c2[nH]c(C3CCCC3)nc2n(CCC)c1=O | 5
C[C@H](NC(=O)c1c(C(F)F)nn(C)c1Oc1cccc(C(F)(F)F)c1)c1ccc(C(=O)O)cc1 | 1

Req: Fill in reported Population Membrane Permeable-Phenotype (%) for this entry: c1cc(OCCCN2CCCCC2)ccc1CN1CCCCC1
Resp: 6

Req: Fill in reported Population Membrane Permeable-Phenotype (%) for this entry: COc1c(C)cc(NC(=O)c2nn(Cc3ccc(F)cc3)c3c2CN(C(=O)c2ccc[nH]2)C[C@]3(C)C(N)=O)cc1C
Resp: 50

Req: Fill in reported Population Membrane Permeable-Phenotype (%) for this entry: Cc1ccccc1C(=O)Nc1ccc(C(=O)N2CCCC(N(C)C)c3ccccc32)cc1.Cl (stereo unspecified)
Resp: 11

Req: Fill in reported Population Membrane Permeable-Phenotype (%) for this entry: CN1CCN2c3ncccc3Cc3ccccc3C2C1 (stereo unspecified)
Resp: 3

Req: Fill in reported Population Membrane Permeable-Phenotype (%) for this entry: CN(C)c1ccnc2sc3c(=O)n(N4CCCCCC4)cnc3c12
Resp: 21

###

Entries annotated with measured Population Healthy Nuclei (%)
Test system: Fibroblast
METHOD_SUMMARY: Multiplex assay against human fibroblast
Format: toxicity, cell-based
PROTOCOL_CONDITIONS: 12 h, 1 µM, compound concentration 1 uM, replicate 2
Lab book: enter the figure in %, no units written.

C[C@H](NC(=O)c1c(C(F)F)nn(C)c1Oc1cccc(C(F)(F)F)c1)c1ccc(C(=O)O)cc1 | 52
CC1(COc2ccc3c(c2)ncn3-c2ccc3cccc(N4CCC(N)CC4)c3n2)COC1 | 47
Cc1ccc(C(C)(O)c2nc3ccccc3s2)c(C)c1 (configuration not stated) | 48
O=C(NCC(=O)N1CC[C@H](N[C@H]2CC[C@@](O)(c3ccc(-c4ncccn4)cn3)CC2)C1)c1cccc(C(F)(F)F)c1 | 52
Cc1nc2ccc(Oc3ccc(F)cc3)cc2c(=O)n1C[C@H]1CCCN(C(C)C)C1.Cl | 47

Req: For Fibroblast, give Population Healthy Nuclei (%) of the listed compound: Cl.Clc1ccc2nsnc2c1NC1=NCCN1 [TIZANIDINE HYDROCHLORIDE]
Resp: 49

Req: For Fibroblast, give Population Healthy Nuclei (%) of the listed compound: O=S(=O)(c1ccccc1)c1cnc2c(N3CCNCC3)cccc2c1 [INTEPIRDINE]
Resp: 47

Req: For Fibroblast, give Population Healthy Nuclei (%) of the listed compound: N[C@@]1(C(=O)O)CO[C@H]2[C@H](C(=O)O)[C@H]21
Resp: 43

Req: For Fibroblast, give Population Healthy Nuclei (%) of the listed compound: O=C(O)Cc1ccccc1Nc1c(Cl)cccc1Cl
Resp: 49

Req: For Fibroblast, give Population Healthy Nuclei (%) of the listed compound: C[C@@H]1C[C@H]2[C@@H]3CCC4=CC(=O)C=C[C@]4(C)[C@@]3(F)[C@@H](O)C[C@]2(C)[C@@]1(O)C(=O)CO
Resp: 48

Req: For Fibroblast, give Population Healthy Nuclei (%) of the listed compound: COc1c(C)cc(NC(=O)c2nn(Cc3ccc(F)cc3)c3c2CN(C(=O)c2ccc[nH]2)C[C@]3(C)C(N)=O)cc1C
Resp: 51

Req: For Fibroblast, give Population Healthy Nuclei (%) of the listed compound: CN(C)c1ccnc2sc3c(=O)n(N4CCCCCC4)cnc3c12
Resp: 51
